Experiment: M. tuberculosis H37Rv growth inhibitors, H37Rv strain (AID 1626);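 note: bacteria incubated seven days before Alamar blue readout; 0% = bacteria only wells and 100% = bacteria with antibiotic wells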
Conditions: active compounds read high, concentration not given here
Out of some 220,000 compounds screened, about 2,000 (0.91%) were called active. About 2% were inconclusive and are not listed. The list is a sample of the results. Results with a measured potency or affinity are listed apart.
measure name: inhibition (%)
Answers are plain numbers, in %.

Sample answers from the record:
- molecule: "Cc1c(NC(=O)CSc2nnc(COc3ccccc3)n2-c2ccccc2)c(=O)n(-c2ccccc2)n1C"
  quantity unit: "%"
  inhibition: -6.74
- molecule: "Cc1ccccc1N(CC(=O)NCCSCc1ccco1)S(C)(=O)=O"
  quantity unit: "%"
  inhibition: -3.95
- molecule: "Cc1ccc(SC[C@H](c2ccccc2)N2CCN(CCc3ccccc3)CCC2=O)cc1"
  quantity unit: "%"
  inhibition: 0.98
- molecule: "O=Nc1c(O)n(Cc2cccc(Cl)c2)c2ccccc12"
  quantity unit: "%"
  inhibition: -7.32
- molecule: "Cc1cccc(NC(=O)c2nc[nH]c2C(=O)N[C@@H](Cc2ccccc2)C(=O)OCc2ccccc2)c1"
  quantity unit: "%"
  inhibition: -0.81
- molecule: "CC(=O)c1ccc(-c2ccc(/C=C(/Sc3n[nH]c(C)n3)C(=O)O)o2)cc1"
  quantity unit: "%"
  inhibition: 6.55

Please state inhibition for every molecule in the list that follows.
1. CCOC(=O)c1ccccc1NC(=O)Cn1cnc2c(nnn2-c2ccc(C)cc2)c1=O
2. Cc1cc(-c2csc(NC(=O)c3cc4ccccc4o3)n2)c(C)n1C
3. Cc1ccc(C(=O)Nc2nc(-c3cccnc3)cs2)o1
4. Cn1cc2cccc([N+](=O)[O-])c2n1
5. O=C1C(NS(=O)(=O)c2cccs2)=C(N2CCN(c3cccc(Cl)c3)CC2)C(=O)c2ccccc21
6. Cc1cccc(NC(=O)c2nc[nH]c2C(=O)N[C@@H](CC(C)C)C(=O)OC(C)(C)C)c1

output:
1: 1.13; 2: -8.86; 3: 7.51; 4: -0.35; 5: 72.6; 6: 39

Please state inhibition for every molecule in the list that follows.
1. O=C(O)c1cc(Cl)ccc1-c1ccc(/C=C/c2cc(C(F)(F)F)[nH]c(=O)n2)o1
2. Cc1ccc(-c2[nH]nc(N)c2N=Nc2cccc(Cl)c2C)cc1
3. Cc1ccc(-n2cc(-c3ccc([N+](=O)[O-])cc3)[nH]c2=S)c(C)c1
4. O=C(Nc1ccccc1)N1CCCC1c1cccs1 (configuration not stated)
5. O=C1c2ccccc2C(=O)N1CN(C(=O)c1ccccc1)c1ccc(O)cc1
6. Cc1nc(S/C(=C/c2ccc(-c3ccc(C(=O)O)cc3)o2)C(=O)O)n[nH]1

output:
-1.69
0.18
3.47
-1.63
-0.6
-17.2

Please state inhibition for every molecule in the list that follows.
1. COC(=O)c1ccccc1N=Nc1c(N)n[nH]c1N
2. O=C(Nc1ccccn1)c1cc2ccccc2o1
3. Cc1ccc(-c2csc(NC(=O)c3ccc(C)o3)n2)cc1
4. Cc1cc(C)c(NC(=O)CSc2nc3ccc(NC(=O)CSc4nnnn4Cc4ccccc4)cc3s2)c(C)c1

output:
1: -10.6; 2: 9.27; 3: 10.4; 4: 8.59

---

Assay: M. tuberculosis H37Rv growth inhibitors, H37Rv strain (AID 1626);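 note: bacteria incubated seven days before Alamar blue readout; 0% = bacteria only wells and 100% = bacteria with antibiotic wells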
Conditions: active compounds read high, concentration not given here
Screen size: about 220,000 compounds; about 2,000 (0.91%) were called active. About 2% were inconclusive and are not listed. Only a sample is shown. Entries with a potency or affinity are not part of this list.
measure name: inhibition (%)
Give bare numbers, in %.

Sample answers from the record:
- molecule: "Cc1cc(NC(=O)CSc2nnc(Nc3ccccc3C)s2)no1"
  data value: -2.04
- molecule: "CC1(C)CC(NC(=O)CCc2nnc(CCCCc3ccccc3)o2)CCO1 (stereo not drawn)"
  data value: -4.26
- molecule: "Cc1nc(CNC(=O)CC2C(=O)NCCN2Cc2cccc(Oc3ccccc3)c2)cs1 (stereo not drawn)"
  data value: -3.5

Please state inhibition for every molecule in the list that follows.
1. O=C(NN1C(=O)C2C3C=CC(O3)C2C1=O)c1cccc(Br)c1 (stereo not drawn)
2. N/C(=N/OC(=O)c1ccccc1Cl)c1nonc1N
3. CCOC(=O)CSc1cc(C)nc2ccc(OC)cc12
4. COC(=O)CSc1cc(C)nc2ccc(OC)cc12
5. CN1CCN(NC(=O)c2cccc(C(F)(F)F)c2)CC1
6. CCc1ccc(OCC(=O)O/N=C(\N)c2ccccn2)cc1
7. COC(=O)c1cnn(-c2nc3c(C)cccc3s2)c1C

output:
1. 5.77
2. -5.25
3. -0.58
4. 10.7
5. -1.25
6. 8.77
7. -0.32

Please state inhibition for every molecule in the list that follows.
1. O=C(NNC(=O)c1cc2cc(OC(F)(F)F)ccc2[nH]1)c1cccc(C(F)(F)F)c1
2. CCOC(=O)c1cnn(-c2nc3c(C)cccc3s2)c1C
3. CCOCCn1c(SCC)nc2c1c(=O)[nH]c(=O)n2C

output:
[0.47, -7.79, -10.1]

Please state inhibition for every molecule in the list that follows.
1. CCN(CC)S(=O)(=O)c1cc([N+](=O)[O-])ccc1N=Nc1c(O)[nH]c2ccccc12
2. Nc1nc(NCC2CCCO2)nc(NCC2CCCO2)c1[N+](=O)[O-] (stereo not drawn)

output:
[0.25, -0.89]
